TARGET UNDER TEST: HPK1 (Homo sapiens, UniProt Q92918)
Construct: A HiBiT tag was introduced by CRISPR on the N terminus of HPK1 in Jurkat cells; host or cells: Jurkat cells (ATCC TIB-152), monoclonal line with CRISPR knock-in of HiBiT at the endogenous HPK1 locus
Sequence (Q92918 whole entry): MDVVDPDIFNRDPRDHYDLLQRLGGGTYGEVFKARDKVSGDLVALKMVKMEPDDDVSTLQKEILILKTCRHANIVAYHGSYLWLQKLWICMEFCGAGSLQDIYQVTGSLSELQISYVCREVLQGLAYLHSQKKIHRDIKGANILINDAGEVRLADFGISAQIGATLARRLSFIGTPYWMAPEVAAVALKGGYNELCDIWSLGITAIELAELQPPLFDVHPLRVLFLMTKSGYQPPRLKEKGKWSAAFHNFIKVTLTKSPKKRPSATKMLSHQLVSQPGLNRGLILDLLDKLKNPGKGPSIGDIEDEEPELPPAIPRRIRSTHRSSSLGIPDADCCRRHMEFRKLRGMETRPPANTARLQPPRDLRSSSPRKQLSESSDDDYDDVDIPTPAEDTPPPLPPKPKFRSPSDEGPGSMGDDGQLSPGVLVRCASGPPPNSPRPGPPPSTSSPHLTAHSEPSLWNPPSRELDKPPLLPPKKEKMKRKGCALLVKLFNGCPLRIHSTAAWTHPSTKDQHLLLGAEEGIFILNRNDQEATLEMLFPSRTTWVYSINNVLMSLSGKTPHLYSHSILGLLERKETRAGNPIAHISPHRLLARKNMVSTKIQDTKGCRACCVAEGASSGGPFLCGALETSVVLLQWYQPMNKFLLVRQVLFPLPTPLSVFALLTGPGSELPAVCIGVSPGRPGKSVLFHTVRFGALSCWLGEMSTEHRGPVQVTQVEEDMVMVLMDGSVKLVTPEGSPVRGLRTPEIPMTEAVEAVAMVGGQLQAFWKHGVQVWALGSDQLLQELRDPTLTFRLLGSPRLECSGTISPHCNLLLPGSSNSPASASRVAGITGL
ASSAY NOTES: HPK1 Cellular HiBit Degradation Assay
Format: cell-based
PROTOCOL CONDITIONS: HiBiT HPK1 Jurkat cells, 24 hrs; concentration at which 50% of HPK1 was remaining; read-out: DC50 Category
ASSAY READOUT: DC50

Form field DC50, entry CC(C)n1cnc2cc(-c3ccc4c(c3)N([C@H]3C[C@@H](N5CC6CCC(C5)O6)C3)C(=O)C43CCN(C(=O)C4(C)CCN(C(=O)C5CCN(c6ccc(C7CCC(=O)NC7=O)cc6)CC5)CC4)CC3)nc(NC3CC3)c21 (mixture of isomers) [Example 197] : 0.1 to 0.5 µM

Form field DC50, entry CC(C)n1cnc2cc(-c3ccc4c(c3)N([C@H]3C[C@@H](N5CCCCC5)C3)C(=O)C43CCN(C(=O)C4CCN(C(=O)[C@H]5CCN(c6ccc(C7CCC(=O)NC7=O)cn6)C5)CC4)CC3)nc(Nc3ccccc3F)c21 (mixture of isomers) [Example 65] : 0.1 to 0.5 µM

Form field DC50, entry CC(C)n1cnc2cc(-c3ccc4c(c3)N([C@H]3C[C@@H](N5CCCCC5)C3)C(=O)C43CCN(C(=O)C4CC5(C4)CN(C(=O)C4CCN(c6ccc(C7CCC(=O)NC7=O)cn6)CC4)C5)CC3)nc(NC3CC3)c21 (some centres unmarked) [Example 182] : < 0.1 µM
